Assay: Toxicity liver stage against HepG2, at 10uM
Format: cell-based
Set-up: test concentration 10 uM, cell line HepG2-A16-CD81EGFP
Details: human, HepG2-A16-CD81EGFP cells; read-out: INHIBITION
RECORDED METRIC: cytotoxicity at 10 µM (%)
Answers are plain numbers, in %.

Worked set:
{"COMPOUND": "Cc1nn(C)c(Cl)c1C1CCCN1Cc1nnc(C2CC2)n1C (centres undefined)", "cytotoxicity at 10 µM / %": -2.24}
{"COMPOUND": "Cc1noc(CNc2ccc(CC(=O)N3CCSCC3)cc2)n1", "cytotoxicity at 10 µM / %": -2.29}
{"COMPOUND": "c1cnc(-c2noc(C3CN(Cc4ccsc4)C3)n2)cn1", "cytotoxicity at 10 µM / %": 0.435}
{"COMPOUND": "CC(=O)c1cc(C(=O)N2Cc3ccccc3OC3(CCOCC3)C2)cs1", "cytotoxicity at 10 µM / %": -20}
{"COMPOUND": "Cc1cc2c(=O)n3c(nc2s1)CCN(C(=O)c1scnc1C)CC3", "cytotoxicity at 10 µM / %": -0.774}
{"COMPOUND": "CN1CCC(O)(CCNC(=O)[C@@]23CNC[C@@H]2CN(C2CCCC2)C3)CC1", "cytotoxicity at 10 µM / %": -1.92}
{"COMPOUND": "Cc1noc(C)c1CNC(=O)N(C)C1CCN(c2ccccc2)C1=O (centres undefined)", "cytotoxicity at 10 µM / %": -8.63}
{"COMPOUND": "c1ccc(Cc2nc(CNC3CCC4(CCNCC4)CC3)no2)cc1", "cytotoxicity at 10 µM / %": -17}

Please state cytotoxicity at 10 µM for every compound in the list that follows.
1. CCn1ccnc1CN1CCCN(C(=O)c2sccc2C#N)CC1
2. CCN(CCO)C[C@@H]1CN(C(=O)c2ccc(C)s2)C[C@@H]1CO
3. Cc1cccc(NCc2nn(C)c(=O)[nH]2)c1

1. -8.08
2. 12.1
3. 2.6

Please state cytotoxicity at 10 µM for every compound in the list that follows.
1. Cn1ncc2c1CCCC2NCc1cccc(C(F)(F)F)c1 (centres undefined)
2. CC(NC(=O)N1CCCN(Cc2cccs2)CC1)c1cccnc1 (centres undefined)

-8.25
-8.83

Please state cytotoxicity at 10 µM for every compound in the list that follows.
1. Cc1noc(C)c1CCC(=O)N(C)C(C)c1cccs1 (centres undefined)
2. CN(Cc1ccco1)[C@@H]1CN(C(=O)C2CCOCC2)C[C@@H]2CCCO[C@@H]21
3. NS(=O)(=O)c1ccc(N2CCN(CCCc3cn[nH]c3)CC2)cc1
4. COc1ccc(C(=O)N2C[C@@H](C)[C@@](C)(O)C2)cc1N1CCOCC1

[7.93, 3.48, -145, 11.3]

Please state cytotoxicity at 10 µM for every compound in the list that follows.
1. Cc1c(CN2CCCCC2)c(O)n(CCO)c(=O)c1C#N
2. CN(C)c1nccc(C2CCCN(C(=O)CO)C2)n1 (centres undefined)
3. CCOCCN1CCC(c2cnccn2)CC1
4. Cc1cccc(N2CCC3(CCCN(C(=O)c4cccnc4)C3)CC2)n1
5. COCC(=O)Nc1ccc(Oc2ccsc2C(=O)O)cc1
6. Cc1nc2c(c(NCC(c3ccccc3C)N(C)C)n1)CCNC2 (centres undefined)

1: -1.64; 2: -29.1; 3: 5.8; 4: 3.77; 5: 8.12; 6: 19.2

Quick one: cytotoxicity at 10 µM of O=C(NCCn1ccnc1)NCC(c1ccco1)N1CCCC1 (centres undefined) ?
2.01

meta.source: ChEMBL document CHEMBL4513216
